Target: Peroxisome proliferator-activated receptor gamma (Homo sapiens) (UniProt P37231)
Sequence (P37231 whole entry, looked up): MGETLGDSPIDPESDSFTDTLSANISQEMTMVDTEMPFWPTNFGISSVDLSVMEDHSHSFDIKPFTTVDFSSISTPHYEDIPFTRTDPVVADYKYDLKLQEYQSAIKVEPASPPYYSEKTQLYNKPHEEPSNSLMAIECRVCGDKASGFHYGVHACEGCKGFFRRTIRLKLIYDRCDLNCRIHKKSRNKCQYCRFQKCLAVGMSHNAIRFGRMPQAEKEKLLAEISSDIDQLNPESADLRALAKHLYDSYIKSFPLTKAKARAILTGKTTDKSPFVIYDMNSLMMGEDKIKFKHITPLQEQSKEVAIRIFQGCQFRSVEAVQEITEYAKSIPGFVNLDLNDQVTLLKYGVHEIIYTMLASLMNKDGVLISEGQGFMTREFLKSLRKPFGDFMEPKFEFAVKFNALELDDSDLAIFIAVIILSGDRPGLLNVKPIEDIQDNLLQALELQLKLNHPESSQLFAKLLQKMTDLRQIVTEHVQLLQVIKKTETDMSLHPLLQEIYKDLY
Test: qHTS assay to identify small molecule agonists of the peroxisome proliferator-activated receptor gamma (PPARg) signaling pathway (AID 743094); as to activation: % is scaled to controls: 0 for no effect and ±100 for the full control effect
Conditions: HEK293H PPARg-UAS-bla, beta-lactamase FRET ratio, 17 h; series mostly up to 57 µM
Inconclusive results are not listed. Calls of active or inactive are those of the source. Calls follow the shape of the dose curve; as a rule, active = well fitted activation curve with a large enough effect in the signal ratio in the repeat runs (not every such curve was filed as active); inconclusive = weak or mixed curves, or effect the other way; inactive = no such curve, though single readings can be large or run the other way; the % refers to the signal ratio.
Respond only with the outcome that fits, drawn from Yes (active), No (inactive)

Examples with answers:
{"compound": "ClC1=C(Cl)[C@]2(Cl)[C@H]3[C@H]([C@H]4C=C[C@H]3C4)[C@@]1(Cl)C2(Cl)Cl", "category.label": "No"}
{"compound": "CC(=O)Nc1ccc2c(c1)Cc1ccccc1-2", "category.label": "No"}
{"compound": "Clc1ccc(C(c2ccccc2Cl)C(Cl)(Cl)Cl)cc1 (stereo not drawn)", "category.label": "No"}
{"compound": "Clc1ccc(C(Cl)(Cl)Cl)c(Cl)c1", "category.label": "No"}
{"compound": "CC(C)OC(=O)C(O)(c1ccc(Cl)cc1)c1ccc(Cl)cc1", "category.label": "No"}

Could you please tell me the result logged for CC(C)CC(C)N (stereo not drawn) in this assay? No

Tell me the assay call for Nc1ccccc1C(=O)Oc1ccc2ccccc2c1 please. No

Outcome? Clc1ccc(C(c2ccc(Cl)cc2)C(Cl)(Cl)Cl)cc1 No

Check the results log: what was the call for CCOC(=O)CC(=O)CCl ? Yes

Query: recorded result category for Nc1ccc(Cc2ccc(N)c(Cl)c2)cc1Cl in this test No

# lookup: test call for Cc1ccc(OP(=O)(Oc2ccccc2)Oc2ccccc2)cc1 No

Can you look up the reported call for C=CC(=O)OCCCCOC(=O)C=C for me? Yes

What is the recorded call for this compound in the test? c1ccc(Nc2ccc3ccccc3c2)cc1 No

###

Assay: A CellTox Green Cytotoxicity Assay to monitor cytotoxicity in HepG2 cells - 16 hour (AID 1224876); also: nearly all actives have a fitted effect of over 45% in size
Settings: CellTox Green fluorescence; series mostly up to 76.8 µM
Excerpt: National Center for Advancing Translational Sciences [NCATS] NIH Chemical Genomics Center [NCGC] U.S. Environmental Protection Agency [EPA] National Institutes of Environmental Health Sciences [NIEHS] National Toxicology Program [NTP] Cell-based models are critical for drug discovery. […] Viable cells produce no appreciable increases in fluorescence. Therefore, the fluorescence signal produced by the binding interaction with dead cell DNA is proportional to cytotoxicity. […]
Inconclusive results are not listed. Active and inactive are the calls of the source. Calls come from the whole dose curve; as a rule, active = well fitted activation curve with a large enough effect in the repeat runs; inconclusive = weak or mixed curves; inactive = flat fitted curve, though single readings scatter.
Result category, one only: active, inactive

As a guide, the following entries are already answered.
{"molecule": "[CH3][Hg][Cl]", "category.label": "active"}
{"molecule": "O=c1[nH]c2ccccc2n1CCCN1CCC(n2c(=O)[nH]c3cc(Cl)ccc32)CC1", "category.label": "inactive"}
{"molecule": "CCOCCOC(C)=O", "category.label": "inactive"}
{"molecule": "COP(N)(=S)OC", "category.label": "inactive"}
{"molecule": "CN(C)CCc1c[nH]c2ccc(O)cc12", "category.label": "inactive"}
{"molecule": "Oc1ccc(C(c2ccc(O)cc2)(C(F)(F)F)C(F)(F)F)cc1", "category.label": "active"}
{"molecule": "CC(C)C(=O)Cl", "category.label": "inactive"}
{"molecule": "CCCCCCCCCCCCCN1CC(C)OC(C)C1 (stereo not given)", "category.label": "inactive"}
{"molecule": "CC(O)C#N (stereo not given)", "category.label": "inactive"}
{"molecule": "CCOc1cc(C(C)(C)C)ccc1C1COC(c2c(F)cccc2F)=N1 (stereo not given)", "category.label": "inactive"}

State the result this test recorded for c1cc[c]([Sb]([c]2ccccc2)[c]2ccccc2)cc1 . inactive

Each molecule tested received a call. Report the one for FC(F)(F)c1cccc(C2=CCN(CCc3ccc4ccccc4c3)CC2)c1 . inactive

Short answer needed: outcome of this test for N#CCCSCCC#N ? inactive

###

Assay: qHTS assay for small molecules that induce genotoxicity in human embryonic kidney cells expressing luciferase-tagged ATAD5 (AID 651632); also: % is scaled to controls: 0 for no effect and ±100 for the full control effect; nearly all actives have a fitted effect of over 15% in size
Conditions: HEK293T ATAD5-luciferase induction, 16 h; series mostly up to 83.3 µM
Results filed as inconclusive are left out. The source made the active and inactive calls. The call rests on the fitted dose curve; in most records, active means well fitted activation curve with a large enough effect in the repeat runs; inconclusive means weak or mixed curves; inactive means no such curve, though single readings can be large or run the other way.
measurement.name: outcome

{"smiles.code": "CCCCCCCCCCCCCCCC[N+](C)(C)C", "outcome": "inactive"}
{"smiles.code": "O=C(CBr)c1ccc(O)cc1", "outcome": "inactive"}
{"smiles.code": "N#CCCSCCC#N", "outcome": "inactive"}
{"smiles.code": "Cc1ccc(OP(=O)(Oc2ccccc2)Oc2ccccc2)cc1", "outcome": "inactive"}
{"smiles.code": "CC1(C)[C@H](C(=O)O[C@H](C#N)c2cccc(Oc3ccccc3)c2)[C@@H]1/C=C(\\Cl)C(F)(F)F", "outcome": "inactive"}
{"smiles.code": "Cc1cc(C(F)(C(F)(F)F)C(F)(F)F)ccc1NC(=O)c1cccc(I)c1C(=O)NC(C)(C)CS(C)(=O)=O", "outcome": "inactive"}

Which value of outcome has been reported for CCCCCCCCCCCCCCCCCCn1cc[n+](C)c1 in the records? inactive

Which measured outcome value corresponds to O=c1ssc(Cl)c1Cl ? inactive

Name the recorded outcome for CC(=O)/C=C/c1ccc2c(c1)OCO2 . inactive

// lookup outcome for O=C(O)COc1nc(Cl)c(Cl)cc1Cl inactive

Quick check: outcome of BrC(Br)C(Br)(Br)Br ? inactive

I'd like to know its outcome. The compound in question is ClC1=C(Cl)[C@]2(Cl)[C@@H]3[C@@H]4C[C@@H]([C@H]5O[C@@H]45)[C@@H]3[C@@]1(Cl)C2(Cl)Cl inactive

Entry CCc1nn(C)c(C(=O)NCc2ccc(C(C)(C)C)cc2)c1Cl : reported outcome = ? inactive

Query (compound): CC(c1ccc(O)cc1)c1ccc(O)cc1 ; field requested: outcome inactive

What does the record list as outcome for Nc1ccc(Sc2ccc(N)cc2)cc1 ? inactive

Field request: outcome | item: CCOC(=O)C1(c2ccccc2)CCN(CCC(C#N)(c2ccccc2)c2ccccc2)CC1 inactive

###

Assay: qHTS assay to identify small molecule antagonists of the estrogen receptor alpha (ER-alpha) signaling pathway using the BG1 cell line in the presence of 0.1 nM 17-beta-estradiol - cell viability counter screen (AID 1259241); also: nearly all actives have a fitted effect of over 40% in size; also: potency is read from the fitted curve at half-maximal effect
Settings: VM7Luc4E2 (BG1) viability, CellTiter-Fluor protease, 22 h, 0.1 nM estradiol agonist added; series mostly up to 92.4 µM
Excerpt: National Center for Advancing Translational Sciences [NCATS] NIH Chemical Genomics Center [NCGC] U.S. Environmental Protection Agency [EPA] National Institutes of Environmental Health Sciences [NIEHS] National Toxicology Program [NTP] U.S. Food and Drug Administration [FDA] Estrogen receptor (ER), a member of the nuclear hormone receptor plays an important role in development, metabolic homeostasis and reproduction. […]
Records with an inconclusive call do not appear. Calls of active or inactive are those of the source. Calls follow the shape of the dose curve; as a rule, active = well fitted cell-killing curve with a large enough effect in the repeat runs; inconclusive = weak or mixed curves, or effect the other way; inactive = flat fitted curve, though single readings scatter.
measurement.name: Potency

{"smiles.code": "O=c1ssc(Cl)c1Cl", "measurement.name": "Potency", "result": "inactive"}
{"smiles.code": "Oc1ccc(C2(c3ccc(O)cc3)CCCCC2)cc1", "measurement.name": "Potency", "result": "inactive"}
{"smiles.code": "O=[N+]([O-])c1ccc(Oc2ccc(C(F)(F)F)cc2[N+](=O)[O-])cc1", "measurement.name": "Potency", "result": "inactive"}
{"smiles.code": "ClC1=C(Cl)[C@]2(Cl)[C@H]3[C@H]([C@H]4C=C[C@H]3C4)[C@@]1(Cl)C2(Cl)Cl", "measurement.name": "Potency", "result": "inactive"}

Reported Potency, compound Cc1ccc(C(=O)Cl)cc1 : ____ inactive

Given the compound Cc1cc(N=Nc2ccccc2C)ccc1N , what is its reported Potency? 24.3 µM (active)

Record request: Potency value, item CCCCCCCCCBr inactive

Which Potency is listed for CCN(CC)C(=S)[S-].CCN(CC)C(=S)[S-].[Zn+2] ? 1.92 µM (active)

Report Potency for N#Cc1ccccc1N please. inactive

May I ask what Potency has been recorded for COc1ccc(OC)c(C=O)c1 ? inactive

Reported Potency, compound C[C@@H](Oc1ccc(Cl)cc1Cl)C(=O)O : ____ inactive

Query (compound): Cc1cc(C)c(C2=C(OC(=O)CC(C)(C)C)C3(CCCC3)OC2=O)c(C)c1 ; field requested: Potency inactive

Field request: Potency | item: Cc1cccc(OP(=O)(Oc2cccc(C)c2)Oc2cccc(C)c2)c1 inactive

###

Target: Cytochrome P450 3A4 (Homo sapiens)
Assay: Cytochrome P450 Family 3 Subfamily A Member 4 (CYP3A4) small molecule antagonists: luciferase reporter qHTS assay (AID 1671201); also: nearly all actives have a fitted effect of over 50% in size
Settings: P450-Glo CYP3A4 enzyme, luciferin luminescence, 1 h; series mostly up to 115 µM
Results filed as inconclusive are left out. The source made the active and inactive calls. Calls come from the whole dose curve; as a rule, active = well fitted inhibition curve with a large enough effect in the repeat runs; inconclusive = weak or mixed curves; inactive = no such curve, though single readings can be large or run the other way.
Please reply with one of these outcomes: 1 (yes) = active, 0 (no) = inactive

// below: answered molecules
{"molecule": "CCC(C)c1cc(C(C)(C)C)cc(-n2nc3ccccc3n2)c1O (configuration not stated)", "measurement.target": "Cytochrome P450 3A4 (Homo sapiens)", "category.label": "0 (no)"}
{"molecule": "O=C(CBr)c1ccc(O)cc1", "measurement.target": "Cytochrome P450 3A4 (Homo sapiens)", "category.label": "0 (no)"}
{"molecule": "S=C=Nc1cccc2ccccc12", "measurement.target": "Cytochrome P450 3A4 (Homo sapiens)", "category.label": "1 (yes)"}

Please indicate how the test categorized CC(C)(C)C(O)C(Oc1ccc(-c2ccccc2)cc1)n1cncn1 (configuration not stated) . 1 (yes)

// outcome(item) with item = CCOC(=O)CC(=O)CCl 0 (no)

Would you mind telling me which call this test gave N#CSCSC#N ? 0 (no)

How was O=c1[nH]c2ccccc2n1C1CCN(CCCC(c2ccc(F)cc2)c2ccc(F)cc2)CC1 classified in this test? 0 (no)

Assay result, entry O=[N+]([O-])c1cc(Cl)ccc1Cl — outcome? 0 (no)

State the result this test recorded for CC(C)C1CCC(Cc2ccc(Cl)cc2)C1(O)Cn1cncn1 (configuration not stated) . 1 (yes)

Record lookup: outcome of this test for CCCCCCCCCCCCCC[P+](CCCCCC)(CCCCCC)CCCCCC (tested in a mixture with another compound) ? 1 (yes)

Per the assay record, what outcome was assigned to O=C(CCCN1CCC2(CC1)C(=O)NCN2c1ccccc1)c1ccc(F)cc1 ? 0 (no)

# fetch the recorded call for Cc1cc(C)cc(OP(=O)(Oc2cc(C)cc(C)c2)Oc2cc(C)cc(C)c2)c1 here 1 (yes)
